target: Ste12 (UniProt P13574); test: PBM E-score (8-mer binding enrichment) (E-score (-0.5 to 0.5)); higher = stronger / more preferred TF binding; settings: protein concentration: 200 nM; construct: GST-DNA-binding domain
Sequence (P13574 whole entry, the tested form may be a part): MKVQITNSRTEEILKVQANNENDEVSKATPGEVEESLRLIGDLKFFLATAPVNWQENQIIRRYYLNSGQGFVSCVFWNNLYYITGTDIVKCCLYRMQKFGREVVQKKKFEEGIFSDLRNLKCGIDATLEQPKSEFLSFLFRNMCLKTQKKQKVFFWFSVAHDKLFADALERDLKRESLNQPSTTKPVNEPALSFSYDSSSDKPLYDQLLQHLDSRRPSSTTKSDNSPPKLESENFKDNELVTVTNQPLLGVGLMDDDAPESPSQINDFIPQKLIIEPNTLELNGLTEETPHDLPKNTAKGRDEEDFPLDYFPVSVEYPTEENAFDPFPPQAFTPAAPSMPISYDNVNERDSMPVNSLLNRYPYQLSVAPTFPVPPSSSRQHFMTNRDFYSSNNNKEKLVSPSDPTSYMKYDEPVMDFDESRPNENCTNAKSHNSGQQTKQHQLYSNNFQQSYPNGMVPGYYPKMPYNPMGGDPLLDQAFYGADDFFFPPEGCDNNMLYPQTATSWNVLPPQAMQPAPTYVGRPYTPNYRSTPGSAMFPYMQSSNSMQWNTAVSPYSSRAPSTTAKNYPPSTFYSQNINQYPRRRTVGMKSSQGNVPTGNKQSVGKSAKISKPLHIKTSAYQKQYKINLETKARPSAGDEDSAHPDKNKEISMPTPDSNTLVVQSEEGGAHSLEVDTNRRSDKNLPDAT
Whole data set: some 33,000 sequences, median “E-score (-0.5 to 0.5)” near -0.01, cut for the highest 2% near 0.26. Only a selection was taken, and the highest values are over-represented in it overall.
Label true when PBM E-score is at or above 0.07; otherwise label false.

Reference set (10 entries):
ATGTGCTG ... true
ATTGTTAC ... true
AACATAAC ... false
ACTAGAAA ... true
CGGCTATC ... false
CGCGATGC ... false
ATTGTTTG ... true
AACATAAT ... true
AAGCGGTA ... false
ACTAGAAT ... true

In: Quick check, PBM E-score >= 0.07? AACATAGA
Out: true

In: How about ACTATAAT ?
Out: true

In: How about GACATAGA ?
Out: true

In: How about ACTAGAAC ?
Out: false

In: How about CTGATCAG ?
Out: false

In: How about AACATAAA ?
Out: true

In: How about CGACGCAG ?
Out: false

In: How about ACTATAAC ?
Out: false

In: How about GATCGATA ?
Out: true

In: How about CGCGCGTC ?
Out: true

In: How about CAATGCAC ?
Out: false

====

target: Ste12 (UniProt P13574); test: PBM E-score (8-mer binding enrichment) (E-score (-0.5 to 0.5)); higher = stronger / more preferred TF binding; conditions: protein concentration: 200 nM; construct: GST-DNA-binding domain
Whole data set: some 33,000 sequences, median “E-score (-0.5 to 0.5)” near -0.01, cut for the highest 2% near 0.26. This is one part of a sample in which the highest values are shown more often than they occur.
A collection of sequences and their measured PBM E-score
Answer using only a numeral; do not append any unit.

Use these answered entries as a reference point.
GAAAAAAA ... 0.369
GGCAAAAC ... 0.133
CTGTACTC ... -0.247

Now consider a different sequence.
In: Given the entry AGCTGATG , report its measured PBM E-score.
Out: 0.129

====

target: Ste12 (UniProt P13574); assay: PBM E-score (8-mer binding enrichment) (E-score (-0.5 to 0.5)); higher = stronger / more preferred TF binding; details: protein concentration: 200 nM; construct: GST-DNA-binding domain
The full ranking holds about 33,000 sequences; the median of “E-score (-0.5 to 0.5)” is about -0.01, and the highest 2% start at about 0.26. This excerpt belongs to a sample that is enriched for the highest values.
Label Met when PBM E-score is at or above 0.1; otherwise label Not met.

Reference set (5 entries):
GGAGGACA ... Not met
CGGCCCCG ... Not met
AGTGAAAG ... Met
ACAAACCA ... Not met
CTTGAACC ... Not met

In: Quick check, PBM E-score >= 0.1? CGCTCCAG
Out: Not met

In: How about GCCGCAGC ?
Out: Not met

In: How about ATTGAAAT ?
Out: Met

In: How about GGTGAACC ?
Out: Not met

Data provenance: the supplement of paper PMC3334620
